The entries below come with measured Kd values attached.
- target: GDP-bound KRAS wild-type protein (Homo sapiens, UniProt P01116)
- Sequence (P01116 whole entry): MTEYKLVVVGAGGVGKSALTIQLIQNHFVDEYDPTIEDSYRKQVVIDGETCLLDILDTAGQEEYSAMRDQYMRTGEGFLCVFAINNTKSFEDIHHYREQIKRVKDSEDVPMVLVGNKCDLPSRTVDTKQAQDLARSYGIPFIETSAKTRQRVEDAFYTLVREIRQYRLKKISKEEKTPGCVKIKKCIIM
- experiment summary: Binding to KRAS by surface plasmon resonance (SPR), Single Cycle Kinetics
- applied conditions: SPR, Single Cycle Kinetics, 1:1 binding model; GDP-bound KRAS wild-type protein; read-out: KRAS KD
Report the figure in nM without appending any unit label.

>>> assay_result("CCO[C@@H]1C[C@H]2C(=O)NC3(CCC3)C(=O)N(C)[C@@H](C(CC)CC)C(=O)N(C)[C@H](C)CC(=O)N(C)[C@@H](CC3CCCC3)C(=O)N[C@@H]([C@@H](C)CC)C(=O)N(C)CC(=O)N(C)[C@H]3C/C=C\\CCN(C3=O)[C@@H](Cc3ccc(F)cc3C)C(=O)N(C)CC(=O)N[C@@H](CCc3cc(F)c(C(F)(F)F)c(F)c3)C(=O)N2C1")
8.8

Okay, next one:
Request: Item under review: `CC[C@H](C)[C@@H]1NC(=O)[C@H](CC2CC2)N(C)C(=O)C[C@@H](C(=O)N(C)C)N(C)C(=O)[C@H](C2CCCC2)N(C)C(=O)C2(CCC2)NC(=O)[C@H](CCC(F)F)N(C)C(=O)[C@H](CCc2cc(F)c(C(F)(F)F)c(F)c2)NC(=O)CN(C)C(=O)[C@H](Cc2ccc(C(F)(F)F)cc2)N2CC/C=C\C[C@@H](C2=O)N(C)C(=O)CN(C)C1=O` . Reported Kd?
Result: 0.3

====

The entries below come with measured Kd values attached.
- target: GDP-bound KRAS wild-type protein (Homo sapiens)
- experiment summary: Binding to KRAS by surface plasmon resonance (SPR), Single Cycle Kinetics
- applied conditions: SPR, Single Cycle Kinetics, GDP-bound KRAS wild-type protein; read-out: KRAS KD
Report the figure in nM without appending any unit label.

# annotated cases, reported Kd shown
>>> assay_result("CCC[C@H]1C(=O)N[C@@H]([C@@H](C)CC)C(=O)N(C)CC(=O)N(C)[C@H]2C/C=C\\CCN(C2=O)[C@@H](Cc2ccc(C)cc2)C(=O)N(C)CC(=O)N[C@@H](CCc2ccc(C(F)(F)F)c(Cl)c2)C(=O)N2C[C@H](OCC)C[C@H]2C(=O)NC2(CC(C)(C)C2)C(=O)N(C)[C@@H](CC(C)(C)C)C(=O)N(C)[C@H](C(=O)N(C)C)CC(=O)N1C [PP2230]")
0.082
>>> assay_result("CCC(CC)[C@H]1C(=O)N(C)[C@H](C(=O)N(C)C)CC(=O)N(C)[C@@H](COC)C(=O)N[C@@H]([C@@H](C)CC)C(=O)N(C)CC(=O)N(C)[C@H]2C/C=C\\CCN(C2=O)[C@@H](CC2CCCCC2)C(=O)N(C)CC(=O)N[C@@H](CCc2ccc(C(F)(F)F)c(OC)c2)C(=O)N2C[C@@H](C)C[C@H]2C(=O)NC2(CC(C)(C)C2)C(=O)N1C [PP2466]")
3.9

Okay, next one:
Request: Item under review: CCCO[C@H](C)[C@@H]1NC(=O)[C@H](COCC)N(C)C(=O)C[C@@H](C(=O)N(C)CC)N(C)C(=O)[C@H](C2CCCC2)N(C)C(=O)C2(CC(C)(C)C2)NC(=O)[C@@H]2C[C@H](C)CN2C(=O)[C@H](CCc2cc(F)c(C(F)(F)F)c(F)c2)NC(=O)CN(C)C(=O)[C@H](Cc2ccc(C)cc2)N2CC/C=C\C[C@@H](C2=O)N(C)C(=O)CN(C)C1=O [PP2426] . Reported Kd?
Result: 0.31
